Tested on: Saccharomyces cerevisiae
Experiment: transcriptional activation domain activity (GFP:mCherry ratio, weighted mean of sorted bins, harmonized to initial dataset scale) (arbitrary fluorescence ratio units); higher = stronger transcriptional activation
Settings: beta-estradiol 1 µM; induction time 4 h
Binary call on transcriptional activation domain activity: satisfied from 50000 upward, not satisfied beneath that.

>>> category("RNVYLSRFWYLSFYSGNQLRRDLNVIVGVGKNWNLPSWWAPILRYIAAPILSI")
"satisfied"
>>> category("HVDQWTVIEQCLLYHQTNFIYFLFFAPLPPFLCLFFLLFVSLVFLCFDPFPLI")
"not satisfied"
>>> category("VSLRSLPYEVGFKQNFNLILNHDASLIKTTVRHLLVYCSLIKAIKLCLIFINK")
"satisfied"
>>> category("EEVKPVMAAETKPEEKKASEEAKPEEKSAETSTDKSSGVNRNAVAAAASAATS")
"not satisfied"
>>> category("LLHAAGVHYGYGLLLLKCDILLRLLMFISFLLSSQFLLSVISPLLFFPSFVLM")
"satisfied"

###

Test system: Saccharomyces cerevisiae
Experiment: transcriptional activation domain activity (GFP:mCherry ratio, weighted mean of sorted bins, harmonized to initial dataset scale) (arbitrary fluorescence ratio units); higher = stronger transcriptional activation
Details: beta-estradiol 1 µM; induction time 4 h
Response key: class 1 means transcriptional activation domain activity >= 50000; class 0 means transcriptional activation domain activity < 50000.

>>> category("ADSDRHKKHKSSSSSSKSRHHDRDDDRDDNDKHSRRSHHKSSSSRHDRDRERG")
"class 0"
>>> category("MSSTKRPAEEEEPVIHEEDEPGKPDSAAAPAPKRRGRPPGSKNKKTIAAEAAA")
"class 0"
>>> category("IIPKIYFYGGYKGLLLFISSLSLTLLCYILITRPILSFLIVSDIVLNVIINIY")
"class 1"
>>> category("PIARESSSLFLANTPYLSDFLTMGSSYGGSGGFAKSITADPSLDYFNYKNHSH")
"class 1"
>>> category("CDEHINMKEKEPEKDETPAADGAAKEEEKKPETKPDDTFQAFVVIAVALISMG")
"class 0"
>>> category("HIDSFLDQMCKVAEGGGFSLSTLADCVILFRDLARIYQEPFSSPFLRLLYAYT")
"class 1"
>>> category("AAKRKTRADEHEEDEEEEHREATVVRRARGRPRKVEAPEPEAPVRATRGRATK")
"class 0"
>>> category("VFRLCLGDLFRPYGISLNVIRLMLMATGTDLDFYVPRSKWRQVLLFLRLASGY")
"class 1"
>>> category("AFLCWVAPNNQVANFLGSGFGGMGFLNLSLDWSNISTNGSLFLTPWWTQVVMF")
"class 1"
>>> category("WLLQYMMLLGTLRRQSDKLVVKVGWYMANYLVPGIYVFQPRIVMKVLLLILRQ")
"class 0"
>>> category("ALRREYLTLNGFMPSRINWAIQSSGVDYLHLLIIAMEHLITRFRLSARLAITV")
"class 1"
>>> category("MLTLLSVTHGLLHKSLVHLGSIFDLCLLWAQGKYTNPILSCLLSLYLLSWLLY")
"class 1"
>>> category("TSTKKTTTTKKATSTKSATATSSCTKYTVKKGDTCSSIASKVGGTTAAKIISK")
"class 0"
>>> category("AAAAAAAAAAAAAAAAAAAAAAAAAAAQQRRRQQQQQRRGSSAAARRQQQQQR")
"class 0"
>>> category("RNLMVIVLVVGNLRLMIENLQKYGVLICLHCHDFRRSDILLGLGLYFLIPCHL")
"class 1"
>>> category("SAFGSSANAPTSGGFGAFGQPVAAAATTSAFGSTTPFGAAAPSPAAPAAAASP")
"class 0"
>>> category("MSFQPLFYLLGLGVLFPLLFLLLSPPLFPSMAPFFLLQILLLMLTTELFFVPL")
"class 0"
>>> category("LKALQLGCYNYFLLGGSCVSGPVGLLAGIIRQPLVLFYHFFSVALYAIWLRVA")
"class 1"
>>> category("KGKGRENVPESESESEEDGDSSPPKAPVRGARGRGRGASRGRGRGRAPAPAAA")
"class 0"
>>> category("MPSFFLFFLFFFLLSQCFLVLCHVCIGLVSFSSLSFFFFFPYSTFFSPLPFFL")
"class 1"
>>> category("MGGAGDKVLICNCSSTDSFLRMFLLILVFFLIILLVCMDWSLRFLMMFVFLLV")
"class 0"
>>> category("SHQVLSCLAIFVFPRLAFITLSDNLLILSLRSMMSDFVFLMLLGAWCFLGFLY")
"class 1"
>>> category("PSSTARRKLLLIYIDFKFFLAASWFRLCNLTLIGSVWWPIWGYMCWILSGPLF")
"class 1"
>>> category("PMRLHVDHVHVVGRPFLWYIIVAMCDNVTHVVLSFSGLTYYTTSRWFESIPYR")
"class 1"
>>> category("ACIVFWMGSWVYKYQLMFVFVSKVESGGRVWNVVINRLLFCVVLMQCLMILTI")
"class 1"
>>> category("RIMLQNAILPWFGKHDLRGKVFGCQIIELFHIFGMSFLNWIWSSGLVLATFPP")
"class 1"
>>> category("YMGSVNLVHYYGVRTFSFILLGPCLTLVVVYRVLALFQSANQQFYILVLAYIA")
"class 0"
>>> category("KSKKKRRSKRKPKNQKKKTTGKDAQEHLDDEQTRNLEDGQDDKKDEQDDDNKK")
"class 0"
>>> category("EGEGEEEAVTLKKTKKGRGGEEEAAKKGKKKGDEEDPAWEEAAAKKGKKKGEE")
"class 0"
>>> category("EEAEKVPEKKPKAEEKAAEDGESSNPVHKCWNCGRTKSAVWRTKVMEDGKAVR")
"class 0"
>>> category("TTLVNTTAPYFPYSFSALEGSTFNGFSFDQTMFDLFLEVWEQTDPLMNYLFDF")
"class 1"
>>> category("VPYFHGLQPNNHYIHRLVVIFLQFAPSFIILTISYEGLFYFGFCLCLFCWILL")
"class 0"
>>> category("SRLHARIEYEESSEQFVLAVLGRNGAWVDGVWSGSGSRVPLSSRSQIQIASRV")
"class 1"
>>> category("TRSFNIMLGMVTFWGVFSLFAIAFQCGLPAPWVFIPSECPTGGYLYYPVIILN")
"class 1"
>>> category("ALTLVDPQGVLKCRIVLFCVIRGSVMVLGWWNYKLMHRWLLPGIIQCLSNIPV")
"class 1"
>>> category("VISDSEDEKPPAKKAKTEEKAEKEEAKEDPEAKAKAVKEKEEAALKLATTRIL")
"class 0"
>>> category("CLFFFSLFSLFILIFLSFLFFPPTSCFPSLYFLFYLSHFLLSFSFLYLYRYRF")
"class 0"
>>> category("PEEEEQAEAGVDSSIVEIAPKRGRGRPRKSLPTEGTTAEAPAKRGRGRPKKVS")
"class 0"
>>> category("VIYTSFFLYIYTPFIPFFFLFFFFLLLIPTFYIYMKRVLYYGLILWWFIQYSL")
"class 1"

###

transcriptional activation domain activity overview
Tested on: Saccharomyces cerevisiae
Experiment: transcriptional activation domain activity (GFP:mCherry ratio, weighted mean of sorted bins, harmonized to initial dataset scale) (arbitrary fluorescence ratio units); higher = stronger transcriptional activation
Conditions: beta-estradiol 1 µM; induction time 4 h
Readout Name: transcriptional activation domain activity

>>> readout_value("MPHYNSFNMDFSKLRNACGIVLLHWRRYRRILWLIAKNFMRLRGLVSLFDSGP")
48600
>>> readout_value("KESRKERHHDSDRRHKRRHRSREGGEGRDRDRDHRRHHRHGRDRSRSRERKLG")
67400
>>> readout_value("PAPAPEAPKEEEAAAEPAAEPPKTEEAPAAEPVKEPEQAEPTPAADAPADAPA")
18900
>>> readout_value("YLSFLGIGVTFYTFLLLFFFLEDLEDFLVFFEGVLMIFLKLFIVFWTSLLVFL")
62000
>>> readout_value("EEGDMDVDEEEGTPTKKRKLSKEEKKALKKEKKKAAKDAAAAVSDYWIVCDQS")
45200
>>> readout_value("MRWNRIIIGSHVSVLWMIGYVFTLLLTLVPSPLLEFRYFILPFIFFCIHLPPP")
48100
>>> readout_value("KLGLGPTYGIMLALLVSHGIVCCFKTSILARLNVYYVILNLGTLIALSVALLV")
50600
>>> readout_value("YDTPSLQMMTIHKSFFGIVNDDTFHWKGLSKLSLDSVPGCRLLSILLLCSATL")
73200
>>> readout_value("MKQHEYFHLGINLFCPPFFILKSYKEAILSLLLAFKILEIWTFFFIFPLFFLF")
47800

###

Tested on: Saccharomyces cerevisiae
Assay: transcriptional activation domain activity (GFP:mCherry ratio, weighted mean of sorted bins, harmonized to initial dataset scale) (arbitrary fluorescence ratio units); higher = stronger transcriptional activation
Settings: beta-estradiol 1 µM; induction time 4 h
Answer -1 if transcriptional activation domain activity is under 50000, and 1 if it is 50000 or more.

>>> category("LREGGVLAVDGTSVGSVEVIYSYSIVVHTRITFRVVARVGRCLVVCLVRWDFY")
-1
>>> category("TKPAEASAADKKPEEAKPAEAPAPAAAPAAAEAPKAEEKPAPAPAPTEAPKAE")
-1
>>> category("MPLPPGISYILKRAPSLLLPGVITYFASKYVVNYCRLTLPRWILCALVLLAKP")
1
>>> category("FAGLSYFVYDLHTMLSSIVIICVIVADFLYFGSILLPALWLECPYRVPLLFRP")
1
>>> category("SQVCLDSFGLLFAVVAYPCTSLLLLIFILASFLTFQAIFTLFPLFRLLAFFCL")
-1
>>> category("MSPPEQSGGAPKHRACDECRARKLACSKEPDGCARCKRESQVCHYSAQKPMGR")
-1
>>> category("KEEAESEAEASAPKGKKGTVKKPAAAAKAKDVDEPKAKRGRPKKTVAKDEVEN")
-1
>>> category("FGLFGPLDFLDFLDLWTFWTFWTLNFLDFWTFGLFGLLALDLDFLDFLDFLDL")
1
>>> category("KKGGKAAKSADRPPSRSRLEEEYVFIDVVSSFLRAIRARVIHIRHGAIVLAHY")
1
>>> category("RRWTRSKWLLLCTYGMMFCIGLTMLLGCLLTWFRGYLRAEVITVGFKRILIIA")
-1
>>> category("DIIPDHYKHKPISLYDPRKAPLLNQYRLIVPRSRNIIEVCQFIILLLLYCLSM")
1
>>> category("MITYILRLGFDYLPPLALWIAIVLVHYTYVCCFLVVACENTCRWHMVQFNLRH")
1
>>> category("LYFLRPEVLPDRYAFTIPAISFLGTNDYPVLVPDLFLLLTSSFWSPTLLWFFT")
1
>>> category("MSSPTSSLFFVSPPVGCYRYLLFFFFSSFWLLFVFLRSVPFGPTLLLFFFYFN")
-1
>>> category("MVSFFFSLCFSSFSYLLFPHFLSFFLFFSLCCHFFPFVSTFPPILFFIMNVSF")
1
>>> category("SHNTHTLSLSLPFPSYSSYSDLIFLFLFLLLFFFFLFLFLFLFLFLFLFSLPF")
-1
>>> category("VLVVVVALPVVAVMVIMVVVVVVVVVVAIIGGGGWWMWLGLWLRLLIEMDVGA")
-1
>>> category("MCIFFKGQYPIYLAFVRPFASLFFRVPLFRLFFGIFCAWVLCFLFLLLLSFSC")
-1
>>> category("EDGESTKTKDAGRKRKRSTGEGEREDKGADGTKENKKKRKLASEKEKESDKEN")
-1
>>> category("MILWNWILEFHSQTSFTLLLFILFHFIFFAYVPLLTSCYSHLFSFSFSTVSFI")
-1
>>> category("TSSPQKGAEKEEAAEAEPEKEKEAEAEAPASPQKRITPMKRGRGRPKRGGAAV")
-1
>>> category("KKEGEDGKGKRKVVVYVGNAKFVTQREEGRDAFSASLASFDAQESAHGRTTIY")
1
>>> category("PIEYNTWLIFRQFVDIILLNDFVAYCMFAFSHFRVPNNLSITMHLLRWICGLA")
-1
>>> category("KMVHRPLLWYFTVFLVDMYTALRLFRLGFRHYAPRTQTRSWFRVFPPRPFTWV")
1
>>> category("KEVMDQIHAIWCILLYLYYGTLETDHVFRFCFAPNVSRPLSELEQRFFNERHG")
-1
>>> category("PNDDFLLDCEEWGLNQLFGDEQFSNNINDLSDDLLALIPDWSFIPPSEDPWGL")
1
>>> category("ARVLGKKNTLEGLASTIRGTVRFVRETCYAVIYCMTRLDMQFYGFLELPGPLA")
-1
>>> category("VLAGYVVHVFGGDYFHSFSMTFFTFIWTLLFMGYIFITRDYIPKCYFYWLHIA")
1
>>> category("KLRHRLEDEKEANFFRAIIHFTGLRLPQARSKPVNVVRGILLVLCQLVQFSGR")
1
>>> category("IVITCLPVTLLLFGKMVDVLDDYYLGIFELVLLFFAFYIFPIFYIFARVILLV")
1
>>> category("KVRAKEIVILPSEEDDNYKPLDTSNATTSSSEPRVDVVQEGLFREALNENDGK")
-1
>>> category("SSSGTPQAKSSSPSSTAASTKAPTSSATKPTSTGSCRKKRSNSTQRRSRTSRM")
-1
>>> category("SFSSYSSLPSFPSFPYFPSFPFLPFLPFSCVLFLLFLPFLHFLLLPSFPFFYL")
1
>>> category("MMSGGMAYQVLFLYLLGYRLFYPRYFLFHSMFLFFIYCYMRCCPFRFTTILID")
1
>>> category("MTFLPFSLFAFLFRCLLFFLAIFRLRYALFLFLFFSFLYLYPFYLHILHIVAY")
1
>>> category("MFYGFGSLSYGKGVTEFFFFSFFFFVASFISCFLFNFFSSAQFCCLFFHFVLI")
1
>>> category("IIQKLCFITVKLFFTKYIPLQAILINLILIGYLMFVVRHFPYRYTTLNNLELI")
1
>>> category("GCRKDQRARRRRSPALANRPEMKGVCLKTGITKPKKPNSGERKTARIRLSSGR")
-1
